Cited source for all entries: patent US11312769B2

system: H526 cells; assay: Growth inhibition and isobologram/combination index, H526; assay type: cell-based, human; settings: Homo sapiens, NCI-H526, 120 h; H526, 5 days, alone
outcome.measure: IC50 (µM)

smiles.record: NC(=O)c1cccc2cn(-c3ccc([C@@H]4CCCNC4)cc3)nc12
reported.result: 3.24
